Tested on: A549
Assay: Cytotoxicity against human A549 cells after 5 days by MTT assay
Type: functional
Details: A549, 120 h, read-out: ED50 (the source's name)
EXPERIMENTAL ENDPOINT: EC50 (mg/L)
Lab book: enter the figure in mg/L, no units written.

- CC1Oc2cc(O)c3c(=O)c(O)c(-c4cc(O)c5c(c4)C=CC(C)(C)O5)oc3c2C1(C)C (centres undefined): 5.52

Give the measured EC50 of C=CC(C)(C)c1c(O)cc(O)c2c(=O)c(O)c(-c3cc(O)c4c(c3)C=CC(C)(C)O4)oc12 .
8.74

---

Recorded measurements of EC50, one per entry
Test system: A549
Experiment: Cytotoxicity against human A549 cells after 5 days by MTT assay
Assay type: functional
Details: A549, 120 h, read-out: ED50 (the source's name)

// known answers, use as guide
- CC(C)=CCc1cc(-c2oc3c4c(cc(O)c3c(=O)c2O)OC(C)C4(C)C)cc(O)c1O (stereo not drawn): 7.77 µg/mL
- CC(C)=CCc1cc(-c2oc3c(CC=C(C)C)c(O)cc(O)c3c(=O)c2O)cc(O)c1O: > 10 µg/mL

Give the measured EC50 of CC(C)=CCc1c(CCCc2ccc(O)cc2O)cc(O)c(O)c1CC=C(C)C .
> 10 µg/mL
